target: AR (Homo sapiens); construct: endogenous in cells; host or cells: VCaP cells; assay: VCAP AR Degradation Assay; assay type: cell-based; details: class symbols A-C, read-out: DC50
Sequence (P10275 whole entry): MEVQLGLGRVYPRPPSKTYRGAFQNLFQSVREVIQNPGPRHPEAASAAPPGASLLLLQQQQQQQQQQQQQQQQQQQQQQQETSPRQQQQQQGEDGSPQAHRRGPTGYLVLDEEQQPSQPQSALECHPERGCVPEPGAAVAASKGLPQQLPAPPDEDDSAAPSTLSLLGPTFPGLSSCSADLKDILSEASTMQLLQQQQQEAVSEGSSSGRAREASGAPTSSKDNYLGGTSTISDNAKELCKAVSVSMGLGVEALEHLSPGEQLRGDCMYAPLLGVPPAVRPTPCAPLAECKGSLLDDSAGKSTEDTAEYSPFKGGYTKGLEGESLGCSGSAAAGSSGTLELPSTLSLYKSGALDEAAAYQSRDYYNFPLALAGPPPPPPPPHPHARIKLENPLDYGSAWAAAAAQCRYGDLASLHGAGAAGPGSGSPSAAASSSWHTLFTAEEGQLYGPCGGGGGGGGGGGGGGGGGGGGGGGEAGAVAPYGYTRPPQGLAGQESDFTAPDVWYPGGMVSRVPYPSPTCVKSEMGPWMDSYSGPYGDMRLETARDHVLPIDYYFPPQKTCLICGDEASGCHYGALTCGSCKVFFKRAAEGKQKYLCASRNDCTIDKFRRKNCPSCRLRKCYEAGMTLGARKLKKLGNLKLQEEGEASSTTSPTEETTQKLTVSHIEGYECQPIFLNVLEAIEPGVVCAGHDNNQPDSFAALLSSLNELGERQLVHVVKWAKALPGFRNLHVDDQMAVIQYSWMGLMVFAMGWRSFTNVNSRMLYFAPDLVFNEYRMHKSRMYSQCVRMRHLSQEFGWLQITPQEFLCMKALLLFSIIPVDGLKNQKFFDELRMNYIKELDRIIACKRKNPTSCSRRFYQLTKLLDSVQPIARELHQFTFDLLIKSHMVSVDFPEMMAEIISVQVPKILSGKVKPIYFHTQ
Where a name gives a salt, the structure may show the parent alone.
measuredQuantity: DC50

Each of the following entries comes with a recorded value; kindly state DC50 for each.
1. C[C@@H]1CN(CCOc2ccc(N3C(=S)N(c4ccc(C#N)c(C(F)(F)F)c4)C(=O)C3(C)C)cc2C2CC2)CCN1CC(=O)Nc1cccc(NC2CCC(=O)NC2=O)c1 (some centres unmarked)
2. CCc1cc(N2C(=S)N(c3ccc(C#N)c(C(F)(F)F)c3)C(=O)C2(C)C)ccc1OCCN1CCN(CC(=O)Nc2cccc(NC3CCC(=O)NC3=O)c2)[C@@H](CO)C1 (some centres unmarked)
3. C[C@@H]1CN(CCOc2ccc(N3C(=S)N(c4ccc(C#N)c(Cl)c4)C(=O)C3(C)C)cc2C2CC2)C[C@H](C)N1CC(=O)Nc1cc(NC2CCC(=O)NC2=O)ccc1F (some centres unmarked)
4. CC(C)c1cc(N2C(=S)N(c3cnc(C#N)c(C(F)(F)F)c3)C(=O)C23CCC3)ccc1OCCN1C[C@@H](C)N(CC(=O)Nc2cc(NC3CCC(=O)NC3=O)ccc2F)[C@@H](C)C1 (some centres unmarked)

-- reply
["< 100 nM", "100 to 500 nM", "< 100 nM", "100 to 500 nM"]

Each of the following entries comes with a recorded value; kindly state DC50 for each.
1. CC(C)c1cc(N2C(=S)N(c3ccc(C#N)c(C(F)(F)F)c3)C(=O)C2(C)C)ccc1OCCN1CCN(CC(=O)Nc2cc(Cl)cc(NC3CCC(=O)NC3=O)c2)CC1 (centres unmarked)
2. CCc1cc(N2C(=S)N(c3ccc(C#N)c(C(F)(F)F)c3)C(=O)C2(C)C)ccc1OCCN1CCN(CC(=O)Nc2cccc(NC3CCC(=O)NC3=O)c2)C(C)(C)C1 (centres unmarked)
3. CC1(C)C(=O)N(c2ccc(C#N)c(C(F)(F)F)c2)C(=S)N1c1ccc(OCCN2CCN(CC(=O)Nc3cccc(NC4CCC(=O)NC4=O)c3)CC2)c(C2CCCC2)c1 (centres unmarked) [Example 39, hydrochloride]
4. CCc1c(OCCN2C[C@@H](C)N(CC(=O)Nc3cccc(NC4CCC(=O)NC4=O)c3)[C@@H](C)C2)ccc(N2C(=S)N(c3ccc(C#N)c(C(F)(F)F)c3)C(=O)C2(C)C)c1C (some centres unmarked)
5. CCc1cc(N2C(=S)N(c3ccc(C#N)c(C(F)(F)F)c3)C(=O)C2(C)C)ccc1OCCN1CCN(CC(=O)Nc2cc(Cl)cc(NC3CCC(=O)NC3=O)c2)[C@H](C)C1 (some centres unmarked)

-- reply
100 to 500 nM
< 100 nM
100 to 500 nM
100 to 500 nM
< 100 nM
